Reference source: ChEMBL document CHEMBL3885861

Species on record: Rattus norvegicus
Assay: Open TG-GATES - Regimen: Single
Type: toxicity, organism-based, Sprague-Dawley
Design: regimen Single, gender Male, age 6 weeks
Settings: in vivo, po, 300 mg/kg, 6 h, tissue Plasma, route gavage, dose level Middle
experimental readout: RALB

Could you tell me RALB for each of these molecules? They are listed below.
1. COc1ccc2[nH]c([S+]([O-])Cc3ncc(C)c(OC)c3C)nc2c1 (centres undefined)
2. COC1=CC(=O)C[C@@H](C)[C@]12Oc1c(Cl)c(OC)cc(OC)c1C2=O
3. CCOC(=O)CCC(=O)O[C@H]1[C@H](O[C@@H]2[C@@H](C)[C@H](O[C@H]3C[C@@](C)(OC)[C@@H](O)[C@H](C)O3)[C@@H](C)C(=O)O[C@H](CC)[C@@](C)(O)[C@H](O)[C@@H](C)C(=O)[C@H](C)C[C@@]2(C)O)O[C@H](C)C[C@@H]1N(C)C [ERYTHROMYCIN ETHYLSUCCINATE]

[out]
1. 3.3 g/dL
2. 3.4 g/dL
3. 2.9 g/dL

[in] // lookup RALB for NC(N)=Nc1nc(CSCCC(N)=NS(N)(=O)=O)cs1
[out] 3.2 g/dL

* * *

For each of the compounds below, state its TBIL.
Species: Rattus norvegicus
Test: Open TG-GATES - Regimen: Single
Format: toxicity, organism-based, Sprague-Dawley
Set-up: regimen Single, gender Male, age 6 weeks
Conditions: in vivo, po, 1000 mg/kg, 6 h, tissue Plasma, route gavage, dose level High
One number for each entry, in mg/dL.

Some solved entries appear below for comparison.
| compound | experimental readout | meas value |
| --- | --- | --- |
| COc1ccc2[nH]c([S+]([O-])Cc3ncc(C)c(OC)c3C)nc2c1 (stereo not given) | TBIL | 0.1 |
| CC(C)OC(=O)C(C)(C)Oc1ccc(C(=O)c2ccc(Cl)cc2)cc1 [FENOFIBRATE] | TBIL | 0.058 |
| CCOC(=O)CCC(=O)O[C@H]1[C@H](O[C@@H]2[C@@H](C)[C@H](O[C@H]3C[C@@](C)(OC)[C@@H](O)[C@H](C)O3)[C@@H](C)C(=O)O[C@H](CC)[C@@](C)(O)[C@H](O)[C@@H](C)C(=O)[C@H](C)C[C@@]2(C)O)O[C@H](C)C[C@@H]1N(C)C [ERYTHROMYCIN ETHYLSUCCINATE] | TBIL | 0.046 |

Could you tell me TBIL for each of these compounds? They are listed below.
1. NC(N)=Nc1nc(CSCCC(N)=NS(N)(=O)=O)cs1
2. COC1=CC(=O)C[C@@H](C)[C@]12Oc1c(Cl)c(OC)cc(OC)c1C2=O

[out]
0.1
0.2

* * *

Organism: Rattus norvegicus
Test: Open TG-GATES - Regimen: Single
Assay type: toxicity, organism-based, Sprague-Dawley
Set-up: regimen Single, gender Male, age 6 weeks
Conditions: in vivo, po, 300 mg/kg, 9 h, tissue Plasma, route gavage, dose level Middle
experimental readout: Ca (mg/dL)
One number for each entry, in mg/dL.

| molecule | Ca (mg/dL) |
| --- | --- |
| CCOC(=O)CCC(=O)O[C@H]1[C@H](O[C@@H]2[C@@H](C)[C@H](O[C@H]3C[C@@](C)(OC)[C@@H](O)[C@H](C)O3)[C@@H](C)C(=O)O[C@H](CC)[C@@](C)(O)[C@H](O)[C@@H](C)C(=O)[C@H](C)C[C@@]2(C)O)O[C@H](C)C[C@@H]1N(C)C [ERYTHROMYCIN ETHYLSUCCINATE] | 10.5 |

Could you tell me Ca for each of these molecules? They are listed below.
1. NC(N)=Nc1nc(CSCCC(N)=NS(N)(=O)=O)cs1 [FAMOTIDINE]
2. COc1ccc2[nH]c([S+]([O-])Cc3ncc(C)c(OC)c3C)nc2c1 (centres undefined) [OMEPRAZOLE]
3. COC1=CC(=O)C[C@@H](C)[C@]12Oc1c(Cl)c(OC)cc(OC)c1C2=O [GRISEOFULVIN]

[out]
[10.3, 10.2, 10.6]
